Known pIC50 of a selection of compounds
# System: 616215-338-R-J1-PDC complex spheroid viability;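 note: spheroids exposed to agents for seven days before viability readout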
# TEST SUMMARY: Anticancer human tumor 616215-338-R-J1-PDC patient-derived colon adenocarcinoma cell line growth inhibition [RAS]
# TEST CONTEXT: curve of first compound; second compound 0.00949 µM
# From the text: RAS pathway inhibitors in Combinations in Complex Spheroids A high-throughput screen of multi-cell type tumor spheroids was designed to identify active combinations of RAS pathway inhibitors and targeted small molecules. Complex spheroids include a stromal component modeled by human endothelial cells (HUVEC) and fibroblasts modeled by human mesenchymal stem cells (MSCs). […] Compounds. […] If the clinical Cmax for an agent had not been determined, the highest concentration tested was 10 microM. […]
pIC50: −log10 of the molar value.

Sample answers from the record:
| COMPOUND | TARGET DESC | pIC50 |
| --- | --- | --- |
| NC1c2ccccc2OC12CCN(c1cnc3c(N4CCCc5ncccc54)n[nH]c3n1)CC2 (stereo not drawn) + CCn1c(-c2cccnc2C(C)OC)c2c3cc(ccc31)N1CCOC(CC(NC(=O)C(C(C)C)N(C)C(=O)C3(F)CCN(C(=O)C#CC(C)(C)N(C)C)CC3)C(=O)N3CCCC(N3)C(=O)OCC(C)(C)C2)C1 | 616215-338-R-J1-PDC complex spheroid viability | < 5.00 |
| CC(C)NCC(C(=O)N1CCN(c2ncnc3c2C(C)CC3O)CC1)c1ccc(Cl)cc1 (stereo not drawn) + CCn1c(-c2cccnc2C(C)OC)c2c3cc(ccc31)N1CCOC(CC(NC(=O)C(C(C)C)N(C)C(=O)C3(F)CCN(C(=O)C#CC(C)(C)N(C)C)CC3)C(=O)N3CCCC(N3)C(=O)OCC(C)(C)C2)C1 | 616215-338-R-J1-PDC complex spheroid viability | < 5.00 |

// below: pIC50 requested for another compound
Inquiry: Answer with the recorded pIC50 for the compound listed here: CC(=O)OC12COC1CC(O)C1(C)C(=O)C(O)C3=C(C)C(OC(=O)C(O)C(NC(=O)OC(C)(C)C)c4ccccc4)CC(O)(C(OC(=O)c4ccccc4)C21)C3(C)C (stereo not drawn) + CCn1c(-c2cccnc2C(C)OC)c2c3cc(ccc31)N1CCOC(CC(NC(=O)C(C(C)C)N(C)C(=O)C3(F)CCN(C(=O)C#CC(C)(C)N(C)C)CC3)C(=O)N3CCCC(N3)C(=O)OCC(C)(C)C2)C1
Reply text: > 7.50
